Tested on: A-375
method_summary: Antiproliferative activity against human A-375 cells assessed as inhibition of cell growth measured after 72 hrs by CCK8 assay
Assay type: functional, cell-based
assay_context: A-375, 72 h
Assignment: determine reported pIC50 for the given compounds.
Here pIC50 is given on a logarithmic scale as minus log10 of the concentration in mol/L.

[in] Param item = CC(C)Nc1c(Cc2ccccc2)c(=O)n(C)c2c1c(=O)n(C)c(=O)n2C ; retrieve measured pIC50.
[out] 4.61

[in] Param item = CN(C)c1cc(NCC(=O)Nc2ccc(OC(F)(F)F)cc2)c2c(=O)n(C)c(=O)n(C)c2n1 ; retrieve measured pIC50.
[out] 4.41

[in] Param item = Cn1c(=O)c2c(Nc3ccc(F)c(Cl)c3)cc(=O)n(C)c2n(C)c1=O ; retrieve measured pIC50.
[out] 4.30

[in] Param item = Cn1c(=O)c2c(Nc3ccc(OC(F)(F)F)cc3)cc(=O)n(C)c2n(C)c1=O ; retrieve measured pIC50.
[out] 4.39

[in] Param item = CN(C)c1cc(NCC(=O)Nc2ccc(F)cc2)c2c(=O)n(C)c(=O)n(C)c2n1 ; retrieve measured pIC50.
[out] 4.34

[in] Param item = O=c1[nH]cc(F)c(=O)[nH]1 ; retrieve measured pIC50.
[out] 5.22

----------
Test system: A-375
method_summary: Antiproliferative activity against human A-375 cells assessed as inhibition of cell growth measured after 72 hrs by CCK8 assay
Format: functional, cell-based
assay_context: A-375, 72 h
pIC50: −log10 of the molar value.
experimental_endpoint: pIC50

[in] Recall the recorded pIC50 for CCn1c(=O)n(C)c(=O)c2c(Nc3ccc(F)c(Cl)c3)cc(=O)n(C)c21 with A-375 and state it.
[out] < 4.30

[in] Recall the recorded pIC50 for CN1CCN(c2cc(NCC(=O)Nc3ccc(Cl)cc3)c3c(=O)n(C)c(=O)n(C)c3n2)CC1 with A-375 and state it.
[out] < 4.30

[in] Recall the recorded pIC50 for CN(C)c1cc(NCC(=O)Nc2ccc(Cl)cc2)c2c(=O)n(C)c(=O)n(C)c2n1 with A-375 and state it.
[out] < 4.30

[in] Recall the recorded pIC50 for CN(C)c1cc(NCC(=O)Nc2ccc(C(F)(F)F)cc2)c2c(=O)n(C)c(=O)n(C)c2n1 with A-375 and state it.
[out] 4.36

----------
Assignment: determine reported IC50 for the given compounds.
System: A-375
method_summary: Antiproliferative activity against human A-375 cells assessed as inhibition of cell growth measured after 72 hrs by CCK8 assay
Type: functional, cell-based
assay_context: A-375, 72 h
Give the quantity in µM, number only.

[in] Param item = Cc1cccc(NC(=O)CNc2cc(N3CCN(C)CC3)nc3c2c(=O)n(C)c(=O)n3C)c1 ; retrieve measured IC50.
[out] 40

[in] Param item = Cn1c(=O)c2c(Nc3ccccn3)cc(=O)n(C)c2n(C)c1=O ; retrieve measured IC50.
[out] 25

[in] Param item = Cn1c(=O)c2c(NCC(=O)Nc3cccc(Cl)c3)cc(N3CCCC3)nc2n(C)c1=O ; retrieve measured IC50.
[out] 48.6

[in] Param item = Cn1c(=O)c2c(NCC(=O)Nc3ccc(Cl)cc3)cc(N3CCCC3)nc2n(C)c1=O ; retrieve measured IC50.
[out] 48.2

[in] Param item = Cn1c(=O)c2c(NCC(=O)Nc3ccc(Cl)cc3)cc(N3CCOCC3)nc2n(C)c1=O ; retrieve measured IC50.
[out] 43.2

[in] Param item = CN1CCN(c2cc(NCC(=O)Nc3ccc(F)cc3)c3c(=O)n(C)c(=O)n(C)c3n2)CC1 ; retrieve measured IC50.
[out] 44.7

----------
System: A-375
method_summary: Antiproliferative activity against human A-375 cells assessed as inhibition of cell growth measured after 72 hrs by CCK8 assay
Format: functional, cell-based
assay_context: A-375, 72 h
experimental_endpoint: IC50 (µM)
Give the quantity in µM, number only.

[in] Recall the recorded IC50 for Cc1ccccc1NC(=O)CNc1cc(=O)n(C)c2c1c(=O)n(C)c(=O)n2C with A-375 and state it.
[out] 13

[in] Recall the recorded IC50 for CN1CCN(c2cc(NCC(=O)Nc3ccc(OC(F)(F)F)cc3)c3c(=O)n(C)c(=O)n(C)c3n2)CC1 with A-375 and state it.
[out] 30.5

[in] Recall the recorded IC50 for CN1CCN(c2cc(NCC(=O)Nc3cccc(C(F)(F)F)c3)c3c(=O)n(C)c(=O)n(C)c3n2)CC1 with A-375 and state it.
[out] 45

----------
Test system: MCF7
method_summary: Antiproliferative activity against human MCF7 cells assessed as inhibition of cell growth measured after 72 hrs by CCK8 assay
Type: functional, cell-based
assay_context: MCF7, 72 h
experimental_endpoint: IC50 (µM)
Give the quantity in µM, number only.

[in] Param item = CCn1c(=O)n(C)c(=O)c2c(Nc3ccccn3)cc(=O)n(C)c21 ; retrieve measured IC50.
[out] 35

[in] Param item = Cn1c(=O)c2c(NCC(=O)Nc3ccc(F)cc3)cc(N3CCCC3)nc2n(C)c1=O ; retrieve measured IC50.
[out] 39.6

[in] Param item = CN1CCN(c2cc(NCC(=O)Nc3ccc(OC(F)(F)F)cc3)c3c(=O)n(C)c(=O)n(C)c3n2)CC1 ; retrieve measured IC50.
[out] 39.3

[in] Param item = Cn1c(=O)c2c(NCC(=O)Nc3cccc(C(F)(F)F)c3)cc(N3CCOCC3)nc2n(C)c1=O ; retrieve measured IC50.
[out] 12

[in] Param item = Cc1ccccc1NC(=O)CNc1cc(N(C)C)nc2c1c(=O)n(C)c(=O)n2C ; retrieve measured IC50.
[out] 49.9

[in] Param item = COC(=O)c1ccccc1Nc1cc(=O)n(C)c2c1c(=O)n(C)c(=O)n2C ; retrieve measured IC50.
[out] 33.4

[in] Param item = CC(C)Nc1c(Cc2ccccc2)c(=O)n(C)c2c1c(=O)n(C)c(=O)n2C ; retrieve measured IC50.
[out] 9.98

[in] Param item = Cn1c(=O)c2c(Nc3ccccn3)cc(=O)n(C)c2n(C)c1=O ; retrieve measured IC50.
[out] 10.2

[in] Param item = CN1CCN(c2cc(NCC(=O)Nc3ccc(F)cc3)c3c(=O)n(C)c(=O)n(C)c3n2)CC1 ; retrieve measured IC50.
[out] 32.9

[in] Param item = Cn1c(=O)c2c(NCC(=O)Nc3ccccc3)cc(N3CCCC3)nc2n(C)c1=O ; retrieve measured IC50.
[out] 42.3

[in] Param item = Cc1ccccc1NC(=O)CNc1cc(=O)n(C)c2c1c(=O)n(C)c(=O)n2C ; retrieve measured IC50.
[out] 17.2

[in] Param item = Cn1c(=O)c2c(NC3CC3)c(Cc3ccccc3)c(=O)n(C)c2n(C)c1=O ; retrieve measured IC50.
[out] 35.9

[in] Param item = O=c1[nH]cc(F)c(=O)[nH]1 [FLUOROURACIL] ; retrieve measured IC50.
[out] 7.42

[in] Param item = Cn1c(=O)c2c(NCC(=O)Nc3ccc(Cl)cc3)cc(N3CCCC3)nc2n(C)c1=O ; retrieve measured IC50.
[out] 41.2

[in] Param item = O=c1[nH]c2c(c(O)c1Cc1ccccc1)c(=O)n(-c1ccc(OC(F)(F)F)cc1)c(=O)n2-c1ccc(OC(F)(F)F)cc1 ; retrieve measured IC50.
[out] 9.98

[in] Param item = Cc1ccccc1NC(=O)CNc1cc(N2CCCC2)nc2c1c(=O)n(C)c(=O)n2C ; retrieve measured IC50.
[out] 15.8

[in] Param item = Cn1c(=O)c2c(NCC(=O)Nc3ccc(F)cc3)cc(N3CCOCC3)nc2n(C)c1=O ; retrieve measured IC50.
[out] 45.4

----------
Tested on: SK-MEL-2
method_summary: Antiproliferative activity against human SK-MEL-2 cells assessed as inhibition of cell growth measured after 72 hrs by CCK8 assay
Type: functional, cell-based
assay_context: SK-MEL-2, 72 h
Assignment: determine reported IC50 for the given molecules.
Give the quantity in µM, number only.

[in] Recall the recorded IC50 for O=c1[nH]cc(F)c(=O)[nH]1 [FLUOROURACIL] with SK-MEL-2 and state it.
[out] 6.52

[in] Recall the recorded IC50 for CN(C)c1cc(NCC(=O)Nc2cccc(Cl)c2)c2c(=O)n(C)c(=O)n(C)c2n1 with SK-MEL-2 and state it.
[out] 41.2

[in] Recall the recorded IC50 for CN1CCN(c2cc(NCC(=O)Nc3ccc(F)cc3)c3c(=O)n(C)c(=O)n(C)c3n2)CC1 with SK-MEL-2 and state it.
[out] 19.9

[in] Recall the recorded IC50 for Cc1ccccc1NC(=O)CNc1cc(N2CCCC2)nc2c1c(=O)n(C)c(=O)n2C with SK-MEL-2 and state it.
[out] 6.59

[in] Recall the recorded IC50 for Cn1c(=O)c2c(NCC(=O)Nc3ccc(Cl)cc3)cc(N3CCOCC3)nc2n(C)c1=O with SK-MEL-2 and state it.
[out] 46.5

[in] Recall the recorded IC50 for CN1CCN(c2cc(NCC(=O)Nc3ccc(Cl)cc3)c3c(=O)n(C)c(=O)n(C)c3n2)CC1 with SK-MEL-2 and state it.
[out] 22.4

[in] Recall the recorded IC50 for CN1CCN(c2cc(NCC(=O)Nc3ccc(C(F)(F)F)cc3)c3c(=O)n(C)c(=O)n(C)c3n2)CC1 with SK-MEL-2 and state it.
[out] 46.4

[in] Recall the recorded IC50 for Cc1cccc(NC(=O)CNc2cc(N3CCN(C)CC3)nc3c2c(=O)n(C)c(=O)n3C)c1 with SK-MEL-2 and state it.
[out] 42.3

[in] Recall the recorded IC50 for CN1CCN(c2cc(NCC(=O)Nc3cccc(Cl)c3)c3c(=O)n(C)c(=O)n(C)c3n2)CC1 with SK-MEL-2 and state it.
[out] 4.79

The values you see were collected from ChEMBL document CHEMBL5113479.
